Record form. Attribute: IC50. Fill in for each entry.
# system name: human TRPV1 (Homo sapiens, UniProt Q8NER1)
# Construct: expressed in transfected cells
# Sequence (Q8NER1 whole entry): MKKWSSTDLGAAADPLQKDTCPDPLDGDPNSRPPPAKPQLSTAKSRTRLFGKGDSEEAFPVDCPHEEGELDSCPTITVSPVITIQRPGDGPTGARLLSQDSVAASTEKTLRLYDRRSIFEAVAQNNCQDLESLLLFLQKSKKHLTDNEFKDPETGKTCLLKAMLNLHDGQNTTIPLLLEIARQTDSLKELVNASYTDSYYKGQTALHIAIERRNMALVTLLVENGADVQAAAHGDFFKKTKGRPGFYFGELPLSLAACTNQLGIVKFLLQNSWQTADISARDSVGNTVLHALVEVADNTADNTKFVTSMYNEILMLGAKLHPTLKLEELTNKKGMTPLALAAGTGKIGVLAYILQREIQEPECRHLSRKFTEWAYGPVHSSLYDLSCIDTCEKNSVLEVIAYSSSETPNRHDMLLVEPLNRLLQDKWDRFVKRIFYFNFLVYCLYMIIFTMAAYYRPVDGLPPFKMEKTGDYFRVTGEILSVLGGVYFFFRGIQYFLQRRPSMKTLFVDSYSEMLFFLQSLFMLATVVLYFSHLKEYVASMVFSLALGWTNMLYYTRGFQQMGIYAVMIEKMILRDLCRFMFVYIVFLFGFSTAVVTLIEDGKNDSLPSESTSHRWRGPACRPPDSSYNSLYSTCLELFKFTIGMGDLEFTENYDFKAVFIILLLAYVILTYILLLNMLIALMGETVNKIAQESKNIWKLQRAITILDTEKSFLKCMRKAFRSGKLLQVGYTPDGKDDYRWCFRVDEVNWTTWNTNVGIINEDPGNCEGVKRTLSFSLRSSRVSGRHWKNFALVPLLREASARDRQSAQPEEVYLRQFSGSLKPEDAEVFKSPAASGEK
# assay notes: Capsaicin Activation Assay (FLIPR intracellular Ca2+, recombinant HEK293 cells)
# Assay type: cell-based
# particulars: recombinant HEK293 cells expressing hTRPV1; 50 nM capsaicin; read-out: human TRPV1 capsaicin IC50
// note: answer is a bare numeric in nM

Field request: IC50 | item: `C[C@]1(CF)C[C@@H](NC(=O)Nc2cccc3c2C[C@H](O)C3)c2ccc(Cl)cc2O1`
60

Param item: `O=C(Nc1c(F)ccc2c1C[C@@H](O)C2)N[C@@H]1CC(CF)(CF)Oc2cc(Cl)ccc21`
210

Also `C[C@]1(C(F)F)C[C@@H](NC(=O)Nc2cccc3c2C[C@H](O)C3)c2ccc(Cl)cc2O1` , if possible.
27

Again, but for `CC1(C)C[C@@H](NC(=O)Nc2ccc(F)c3c2C[C@H](O)C3)c2ccccc2O1`
3200

Could you do the same for `O=C(Nc1ccc(F)c2c1C[C@H](O)C2)N[C@@H]1CC(CF)(CF)Oc2c(F)cccc21` , please?
5500

Same again, this time with `CC1(C)C[C@@H](NC(=O)Nc2cccc3c2C[C@@H](O)C3)c2ccc(Cl)cc2O1`
24

Similarly, O=C(Nc1cccc2c1CC(O)C2)NC1c2ccccc2OCC1c1ccccc1 (stereo not shown) ?
8000

Then what about the compound `O=C(Nc1c(F)ccc2c1C[C@H](O)C2)N[C@@H]1CC(CF)(CF)Oc2cc(C(F)(F)F)ccc21` ?
62

Now the same for `C[C@]1(CF)C[C@@H](NC(=O)Nc2cccc3c2C[C@H](O)C3)c2ccc(C(F)(F)F)cc2O1`
18

Also `O=C(Nc1cccc2c1C[C@@H](O)C2)N[C@@H]1CC(CF)(CF)Oc2c(F)cccc21` ?
1200

Quick one: `O=C(Nc1cccc2c1C[C@@H](O)C2)N[C@@H]1CCOc2c(OC(F)(F)F)cccc21`
25

Next compound up: O=C(Nc1cccc2c1CC(O)C2)NC1c2ccccc2CC1Cc1ccccc1 (stereo not shown)
3500

Next compound: `CC1(C)C[C@@H](NC(=O)Nc2cccc3c2C[C@@H](O)C3)c2cccc(F)c2O1`
520

Now this one: CC(C)(C)c1ccc(Nc2ncnc3cc(-c4ncccc4C(F)(F)F)ccc23)cc1 [B, reference compound]
55

How about this compound: `CC1(C)C[C@@H](NC(=O)Nc2cccc3c2C[C@@H](O)C3)c2ccc(Cl)c(F)c2O1`
11

Cool, now `CCCC1(CCC)C[C@@H](NC(=O)Nc2cccc3c2C[C@H](O)C3)c2cccc(F)c2O1`
23

----------
# system name: human TRPV1 (Homo sapiens, UniProt Q8NER1)
# Construct: expressed in transfected cells
# assay notes: Acid Activation Assay (pH 5.0, FLIPR intracellular Ca2+, recombinant HEK293 cells)
# Type: cell-based
# particulars: percentage of maximal pH 5.0-induced response remaining; HEK293 hTRPV1; max concentration 37.5 μM
measured quantity: human TRPV1 H+ (max % remain) (%)
Number only, in %; omit the unit.

Value lookup for human TRPV1 H+ (max % remain); key = O=C(Nc1cccc2c1CC(O)C2)NC1c2ccccc2CC1Cc1ccc(Cl)c(Cl)c1 (centres unmarked)
63

And what about the molecule COc1ccc2c(c1)OCC(Cc1ccc(Cl)c(Cl)c1)C2NC(=O)Nc1cccc2c1CC(O)C2 (centres unmarked) ?
43

Request: `CC1(C)C[C@@H](NC(=O)Nc2ccc(F)c3c2C[C@@H](O)C3)c2cc(F)ccc2O1`
49

Now consider `CC1(C)C[C@@H](NC(=O)Nc2cccc3c2C[C@H](O)C3)c2cccc(F)c2O1` and answer again.
87

Next entry: `O=C(Nc1cccc2c1C[C@H](O)C2)N[C@@H]1CCc2cc(OC(F)(F)F)ccc21`
26

Follow-up entry: `O=C(Nc1ccc(F)c2c1C[C@H](O)C2)N[C@@H]1CC(CF)(CF)Oc2cc(OC(F)(F)F)ccc21`
2

Cool, now `O=C(Nc1cccc2c1C[C@@H](O)C2)N[C@@H]1CC(CF)(CF)Oc2ccccc21`
46

Let us now turn to CC1(C)Oc2ccc(F)cc2CC1NC(=O)Nc1cccc2c1C[C@H](O)C2 (some centres unmarked)
78

----------
# system name: human TRPV1 (Homo sapiens, UniProt Q8NER1)
# Construct: expressed in transfected cells
# assay notes: Acid Activation Assay (pH 5.0, FLIPR intracellular Ca2+, recombinant HEK293 cells)
# Format: cell-based
# particulars: percentage of maximal pH 5.0-induced response remaining; HEK293 hTRPV1; max concentration 37.5 μM
Assignment: determine reported human TRPV1 H+ (max % remain) for the given compounds.
Value expressed in %; do not type the unit.

Query (compound): CC1(C)C[C@@H](NC(=O)Nc2ccc(F)c3c2C[C@H](O)C3)c2ccc(F)c(Cl)c2O1 [Example 147] ; field requested: human TRPV1 H+ (max % remain)
2

Please give the result for O=C(Nc1c(F)ccc2c1C[C@@H](O)C2)N[C@@H]1CC(CF)(CF)Oc2cc(C(F)(F)F)ccc21 [Example 95] too.
46

Same read-out for O=C(Nc1cccc2c1C[C@H](O)C2)N[C@@H]1CC2(CCC2)Oc2ccc(F)cc21 [Example 8] ?
50

Same question, CC1(C(F)F)C[C@@H](NC(=O)Nc2cccc3c2C[C@H](O)C3)c2cc(Cl)ccc2O1 (some centres unmarked) [Example 61] this time
69

One more compound: CN1CC[C@@H](NC(=O)Nc2ccc(F)c3c2C[C@H](O)C3)c2ccc(C(F)(F)F)cc21 [Example 148]
21

What do you get for CCCC1(CCC)C[C@@H](NC(=O)Nc2cccc3c2C[C@H](O)C3)c2cc(F)ccc2O1 [Example 56] ?
96

Repeat for the following compound: O=C(Nc1cccc2c1C[C@H](O)C2)N[C@@H]1CCc2cc(Cl)ccc21 [Example 39]
46

Entry to check: COc1ccc(C2COc3ccccc3C2NC(=O)Nc2cccc3c2CC(O)C3)cc1 (centres unmarked) [Example 116]
94

----------
Exercise: for every item that follows, state its recorded IC50.
# system name: human TRPV1 (Homo sapiens)
# Construct: expressed in transfected cells
# assay notes: Capsaicin Activation Assay (FLIPR intracellular Ca2+, recombinant HEK293 cells)
# Assay type: cell-based
# particulars: recombinant HEK293 cells expressing hTRPV1; 50 nM capsaicin; read-out: human TRPV1 capsaicin IC50
Give just the number in nM; leave the unit off.

GET /values?readout=IC50&system=human TRPV1 (Homo sapiens)&item= O=C(Nc1cccc2c1CC(O)C2)NC1CC(c2cccc(Cl)c2)Oc2ccccc21 (stereo not drawn) [Example 110]
240

Record: O=C(Nc1cccc2c1C[C@H](O)C2)N[C@@H]1CC(CF)(CF)Oc2ccccc21 [Example 69]
400

Cool, now CC1(C)C[C@@H](NC(=O)Nc2ccc(F)c3c2C[C@H](O)C3)c2cc(F)ccc2O1 [Example 146]
2800

----------
Task for the reader: assign each of the following compounds its reported IC50.
# system name: human TRPV1 (Homo sapiens)
# Construct: expressed in transfected cells
# assay notes: Capsaicin Activation Assay (FLIPR intracellular Ca2+, recombinant HEK293 cells)
# Assay type: cell-based
# particulars: recombinant HEK293 cells expressing hTRPV1; 50 nM capsaicin; read-out: human TRPV1 capsaicin IC50
# Description: (i) Capsaicin Activation Assay Dulbecco's modified Eagle medium (DMEM) (with 4.5 mg/mL glucose) and fetal bovine serum were obtained from Hyclone Laboratories, Inc. (Logan, Utah). […] The functional activity of compounds at the TRPV1 receptor was determined by measurement of intracellular Ca^2+ levels ([Ca^2+]i) using the Fluorescence Imaging Plate Reader (FLIPR)TETRA®. […] Fluorescence readings were made at 1 to 5 second intervals over the course of the experimental run. […]
Output spec: scalar in nM, unitless text.

Consider the compound shown here: COc1ccc(CC2COc3ccccc3C2NC(=O)Nc2cccc3c2CC(O)C3)cc1OC (stereo not shown) [Example 109] What is its recorded IC50?
3100

Note, next up: O=C(NCC1CCc2cc(C(F)(F)F)ccc2O1)Nc1cccc2c1C[C@H](O)C2 (stereo partly shown) [Example 26]
770

And then O=C(Nc1cccc2c1C[C@@H](O)C2)N[C@@H]1CC2(CCC2)Oc2ccc(F)cc21 [Example 80] , what is it?
110

Let us now turn to O=C(Nc1ccc(F)c2c1C[C@@H](O)C2)N[C@@H]1CC(CF)(CF)Oc2c(F)cc(F)cc21 [Example 162]
3400

Could you do the same for CC1(C)C[C@@H](NC(=O)Nc2cccc3c2C[C@H](O)C3)c2ccc(F)cc2O1 [Example 5] , please?
32

Try the compound CC1(C)C[C@@H](NC(=O)Nc2ccc(F)c3c2C[C@H](O)C3)c2ccc(Cl)cc2O1 [Example 149]
540

Input O=C(Nc1ccc(F)c2c1C[C@H](O)C2)N[C@@H]1CC(CF)(CF)Oc2c1ccc(Cl)c2F [Example 144]
400

Then what about the compound O=C(Nc1cccc2c1CC(O)C2)NC1CC(c2ccccc2)Oc2ccccc21 (stereo not shown) [Example 118] ?
61

Moving on to CC1(C)C[C@@H](NC(=O)Nc2cccc3c2C[C@@H](O)C3)c2ccccc2O1 [Example 82]
510

Another compound to look at: O=C(Nc1cccc2c1C[C@H](O)C2)N[C@@H]1CCOc2cc(OC(F)(F)F)ccc21 [Example 14]
44

Field entry: CC(C)(C)c1ccc2c(c1)CC[C@H]2NC(=O)Nc1cccc2c1C[C@H](O)C2 [Example 50]
32

Next up: CC1(CF)C[C@@H](NC(=O)Nc2cccc3c2C[C@H](O)C3)c2ccc(Cl)cc2O1 (stereo partly shown) [Example 67]
17

Next entry: O=C(Nc1cccc2c1C[C@H](O)C2)N[C@@H]1CC(CF)(CF)Oc2cc(C(F)F)ccc21 [Example 130]
34000

Try O=C(Nc1cccc2c1C[C@H](O)C2)N[C@@H]1CC(CF)(CF)Oc2c(F)cccc21 [Example 70] next.
220

Then C[C@]1(CF)C[C@@H](NC(=O)Nc2cccc3c2C[C@H](O)C3)c2cccc(F)c2O1 [Example 66] ?
280

Param item: CC1(C)C[C@@H](NC(=O)Nc2cccc3c2C[C@@H](O)C3)c2ccc(F)c(F)c2O1 [Example 38]
37
